system: NS3/4A protease complex, J4L6S strain (Hepatitis C virus genotype 1b, UniProt O92972, C1454S/C1711G)
Construct: DNA encoding the recombinant HCV NS3/4A protease complex (amino acids 1027 to 1711) for these strains; inferred from pET21b vector and Ni-NTA purification
Sequence (O92972 1027-1711 C1454S/C1711G, one chain of several): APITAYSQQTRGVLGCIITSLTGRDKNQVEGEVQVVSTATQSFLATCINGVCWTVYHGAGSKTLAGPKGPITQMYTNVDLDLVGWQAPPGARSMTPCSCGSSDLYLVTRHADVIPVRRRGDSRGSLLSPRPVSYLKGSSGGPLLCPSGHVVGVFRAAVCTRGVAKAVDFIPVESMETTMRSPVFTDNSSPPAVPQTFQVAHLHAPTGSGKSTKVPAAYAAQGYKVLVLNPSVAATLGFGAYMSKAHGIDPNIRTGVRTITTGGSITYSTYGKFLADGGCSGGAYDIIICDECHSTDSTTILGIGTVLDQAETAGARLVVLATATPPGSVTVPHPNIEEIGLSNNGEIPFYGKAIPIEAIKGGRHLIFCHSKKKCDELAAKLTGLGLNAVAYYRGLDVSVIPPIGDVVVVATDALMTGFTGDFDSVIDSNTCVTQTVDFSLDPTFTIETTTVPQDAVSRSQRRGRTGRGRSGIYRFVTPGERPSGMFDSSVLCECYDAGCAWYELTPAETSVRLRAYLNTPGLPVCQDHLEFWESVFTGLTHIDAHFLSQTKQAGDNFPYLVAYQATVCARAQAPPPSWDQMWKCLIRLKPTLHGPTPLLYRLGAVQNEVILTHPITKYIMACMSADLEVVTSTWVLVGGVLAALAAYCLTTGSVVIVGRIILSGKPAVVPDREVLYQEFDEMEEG
experimental protocol: Recombinant HCV NS3/4A protease complex FRET peptide assay, J4L6S strain
observable: IC50

Input line: Fill blank: measured IC50 of the compound C=CC1C[C@]1(NC(=O)[C@@H]1C[C@@H](Oc2cc(-c3ccccc3)nc3cc(OC)ccc23)CN1C(=O)[C@@H](NC(=O)OC)C(C)(C)C)C(=O)NS(=O)(=O)N(C)Cc1ccccc1 (stereo partly shown) is ____.
Output line: 41 nM
